system: PPARg homodimer (NR concentration 180 nM); experiment: PBM binding z-score (relative to random genomic background probes); higher = stronger binding; sequences stand for … in GC…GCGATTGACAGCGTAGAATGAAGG
Quantity Name: PBM binding z-score
In your answer, state the number alone without any accompanying words.

Q. Find the measured PBM binding z-score of ATATGTAGGTTAGCTGGGGTCATACAGACTAGGC and report it.
A. 2.67

Q. Dear colleague, please send me the reported PBM binding z-score for CGAACTAGGTCATTCACAGGACAGTGAATAGTAA when you can.
A. 1.48

Q. Using known records, supply PBM binding z-score for CGTCCAAGGTCAGCAGGTAAGTGAAAGCGACGTG
A. 2.47

Q. Give a short answer stating reported PBM binding z-score for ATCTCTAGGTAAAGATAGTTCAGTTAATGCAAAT .
A. 1.02

New cases:
Q. Please report the measured PBM binding z-score for ATCGAAAGGACGAGGTGAGTATAGAGAAAGGGAA
A. 0.139

Q. Supply PBM binding z-score value. Item: CGAACGAGGGCATGAGTTGGTAGCAAATGCCGAT
A. -0.306

Q. Please report PBM binding z-score for the following sequence: CCTAGCAGGTCAATCTGGGTCACTCAAGGCTTGA
A. 2.33

Q. Given CGAACTAGGTAAGAACAGGACAGTGAAGGATGAT , respond with its PBM binding z-score.
A. 0.00147

Q. Specify reported PBM binding z-score for the sequence shown: CCGACTGGGGCATAAGGTTGCCATAAGCCAGCCC
A. -0.22

Q. Provide only the value of recorded PBM binding z-score for CCTTACGGGTCAAGATTATAGCACGGGTGGTACG
A. 2.2

Q. Look up and report measured PBM binding z-score for this entry: CATACAGGGCCAGCTAGGCCAGAGTAGGGACGGC
A. -0.651

Q. Tell us which PBM binding z-score value is on record for GCTAGTTGGTCAGTATAAGGTCACACACCGGTCG
A. 4.01

Q. In one line, give reported PBM binding z-score of the entry CGAACTAGGTCATCCTGGACAGTGAATACATTGA .
A. 1.83

Q. Read off the recorded PBM binding z-score for AGAATGAGGTTAAGATCATGGAAACAGAATACAT
A. 0.572

* * *

Some sequences, each annotated with its measured PBM binding z-score.
test system: THRa homodimer (NR concentration 90 nM); test: PBM binding z-score (relative to random genomic background probes); higher = stronger binding; sequences stand for … in GC…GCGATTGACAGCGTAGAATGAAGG

Q. Read off the recorded PBM binding z-score for AGAACGAGGGCAATGAGGTGATAGCACGGGTGGC
A. 0.988

Q. Give the value of PBM binding z-score reported for the following: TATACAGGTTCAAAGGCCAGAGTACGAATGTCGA
A. -0.0522

Q. Consider the sequence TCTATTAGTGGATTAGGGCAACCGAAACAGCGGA and give its recorded PBM binding z-score.
A. 0.4

Q. Indicate its recorded PBM binding z-score; the sequence in question is ACTAGCAGGACAAGGGTCACTCAAGATTAGTCCG
A. 0.529

Q. Give the reported PBM binding z-score for this sequence. TATGCAGGGTCAAAGGCCAGAGTACGAATGTCGA
A. 0.361

New cases:
Q. Give PBM binding z-score for ATCTCTAGGTAACAAAGTTCAGTGAATGCCGAAC
A. 0.601

Q. Read off the recorded PBM binding z-score for TCAGACAGGTGAAGGTAACTCACGTACGCAGTCG
A. 0.0497

Q. Annotate the sequence TCTATTAGTTGATTAGGGCAACCGGAACAGCGGA with its measured PBM binding z-score.
A. 0.261

Q. Return PBM binding z-score for the following sequence: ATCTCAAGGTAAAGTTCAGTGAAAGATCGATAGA
A. 0.667

Q. Consider the sequence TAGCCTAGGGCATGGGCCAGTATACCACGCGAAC and give its recorded PBM binding z-score.
A. 0.0268

Q. Provide measured PBM binding z-score value, entry: CAAACTAGGTCAATGGTCAAAGTCGAGCCAACCA
A. 0.976

* * *

tested on: RARb:RXRa (NR concentration 270 nM, RXRa partner concentration 90 nM); assay: PBM binding z-score (relative to random genomic background probes); higher = stronger binding; sequences stand for … in GC…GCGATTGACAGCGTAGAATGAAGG
Assign Fulfilled to entries whose PBM binding z-score meets or exceeds 2; assign Not fulfilled to the rest.

Q. Evaluate CCAGACAGGTGTGAAGGTAACTCAGCCTCGATTA : PBM binding z-score at minimum 2?
A. Not fulfilled

Q. Please check the record CAAACTAGGTCAAGAGTTCAAAGTCCGCTTCCCG and state if its PBM binding z-score is at or above 2.
A. Fulfilled

Q. Quick check: does CGAACTAGGTCAAGGACAGCGAATCTCCGCACGC have PBM binding z-score greater than or equal to 2?
A. Fulfilled

Q. Assess whether reported PBM binding z-score for TCATATAGGTAACCAGGTGAAAGTCCGTAAGTTA sits at 2 or higher.
A. Not fulfilled

Q. Say whether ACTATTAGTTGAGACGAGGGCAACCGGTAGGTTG shows PBM binding z-score of 2 or more.
A. Not fulfilled

Q. Confirm if PBM binding z-score reported for the sequence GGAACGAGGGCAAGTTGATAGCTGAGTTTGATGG is 2 or above.
A. Fulfilled

Q. Is reported PBM binding z-score greater than or equal to 2 here: TCGAGTAGGTTACCAATGGGGCATTAAGCTTTCT
A. Not fulfilled

Q. Record CATACTGGGCCACGAAAGGTCATTGATTCAGTGA ; criterion: PBM binding z-score no lower than 2. Met?
A. Fulfilled

Q. Please indicate if the recorded PBM binding z-score for ACTAGCAGGCGAAGTTTGGGTCACTCAAACAAAG meets or exceeds 2.
A. Not fulfilled

Q. State whether the measured PBM binding z-score reaches 2, counting equality as reaching it, for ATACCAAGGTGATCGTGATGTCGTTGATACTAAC
A. Not fulfilled

Q. Assess whether reported PBM binding z-score for TGACCAAGGTGAAAGGTCGTTGATGCACGCCTTG sits at 2 or higher.
A. Fulfilled

Q. Hi team, for ACTGGGAGGACAAAGGTCAGAGCTACGCCAGTGA , is the recorded PBM binding z-score at or above 2?
A. Fulfilled

Q. Reported PBM binding z-score reaches at least 2 for CCTACTGAGCCATCAGGTCATTGATATCAACGTT ?
A. Not fulfilled

Q. In plain terms: is recorded PBM binding z-score at least 2 for CGTGCAAGGTCAGCAGGTCAGTGAAAGCGACGTG ?
A. Fulfilled

Q. Item CAAACTAGGTCACGAAAGCTCAAAGTCGAATGAC with PBM binding z-score of 2 or above?
A. Fulfilled

Q. Threshold query (PBM binding z-score >= 2) on CCGACTGGGGCAAGGTTACCATAACGCACAGCCA
A. Not fulfilled

* * *

tested on: RARb homodimer (NR concentration 270 nM); assay: PBM binding z-score (relative to random genomic background probes); higher = stronger binding; sequences stand for … in GC…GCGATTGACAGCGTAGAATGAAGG
PBM binding z-score of 3 or higher: Criterion met. Under 3: Criterion not met.

Below, 8 sequences whose answers are already recorded.
Q. Is the recorded value of PBM binding z-score equal to or greater than 3 for this sequence? ACTATTAGTTGAGATGAGGGCAACCGATAGGTTG
A. Criterion not met

Q. Is it the case that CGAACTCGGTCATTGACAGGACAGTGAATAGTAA has PBM binding z-score reaching or exceeding 3?
A. Criterion not met

Q. Please tell me: is the sequence AGTCATAGTTCAGGACGAGGTAACGTAAAGCACG at or over 3 in terms of PBM binding z-score?
A. Criterion not met

Q. Test whether the sequence ATCTCTATGTAAGACTCAGTTCAGTGAAGAACGC records PBM binding z-score of 3 or higher.
A. Criterion not met

Q. Quick check: does TCTAGCAGGCCAGAGGGTCACTTAAGAGGTACGG have PBM binding z-score greater than or equal to 3?
A. Criterion not met

Q. Reported PBM binding z-score reaches at least 3 for GCTGCTAGGTCAACTGATGCTCAGCTAAAGCTCG ?
A. Criterion met

Q. State whether the measured PBM binding z-score reaches 3, counting equality as reaching it, for AGACAAAGTTCACTAGGTAACGTAAGATTCAGCT
A. Criterion met

Q. Quick check, PBM binding z-score >= 3? ATCGAGAGGTCGTGAGGTGAGTATACAGAAAGGC
A. Criterion not met

Next:
Q. Item TCCCGGAGGACACGAAAGGTCAGAGCTCGACATC with PBM binding z-score of 3 or above?
A. Criterion met

Q. Tell me whether PBM binding z-score is at least 3 here: CCGAGTAGGTTATGGGGCTTTCAGGCAACGGTGA
A. Criterion not met

Q. Determine whether measured PBM binding z-score meets or exceeds 3 for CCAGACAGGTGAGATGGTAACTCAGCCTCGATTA
A. Criterion not met

Q. Test whether the sequence AGAACGAGGTTAAGATCAGGGAAACAGAATACAT records PBM binding z-score of 3 or higher.
A. Criterion not met

Q. Dear colleague, could you confirm whether CCGAGCAGGTTATGGGGCATTCAGGCAACGGTGA has PBM binding z-score at or above 3?
A. Criterion not met

Q. Decide: is the reported value of PBM binding z-score for TCAATTAGTTGAAGGGCAACCGACGAGTCCGTTT equal to or greater than 3?
A. Criterion not met

Q. Textbook exercise: given the entry CCGAGTAGGTTATGGAGCATTCAGGCAACGGTGA , state whether its PBM binding z-score is greater than or equal to 3.
A. Criterion not met

Q. Kindly determine if PBM binding z-score recorded for CCTAGTTGGTCAGGAGGTCACACTCCGGATATGA is above or exactly 3.
A. Criterion met

Q. Is PBM binding z-score for CCTTACGGGTAACTGACAGGTTATAGCATTTGGA at or above 3?
A. Criterion not met

Q. Please indicate if the recorded PBM binding z-score for CCTACTGAGCCAAGGTCATTGATCAGTCAAAGCA meets or exceeds 3.
A. Criterion met

Q. Please check the record TCTAGTTGGACACGGAGGTCACACACGACGGGTA and state if its PBM binding z-score is at or above 3.
A. Criterion met
